molecular target: APOL1; details: ASO, A431, 1 µM
After the bases stand the sugars from the 5' end (letter, count) and the backbone: PS all phosphorothioate, else s phosphorothioate and o phosphodiester by linkage. Methylation of C is not given here. e = 2'-O-(2-methoxyethyl) (MOE); k = constrained ethyl (cEt); d = 2'-deoxy (DNA)
Rule: target mRNA inhibition of 90% or more gives 1; anything lower gives -1.

A selection of reference data follows.
• ACTTTTTCACCATAGC (sugars k4 d9 k3, PS) = 1
• AATATCAGAGTGTACC (sugars k4 d9 k3, PS) = -1
• TTTGTAAGTGCAACCA (sugars kekddddeekkddddd, PS) = 1
• TTATATTTGATCCTCA (sugars kkddddkdkdkddddd, PS) = 1
• TCCAGATGTGTTTAGG (sugars k4 d9 k3, PS) = 1
• GAACGCAATGCTGACT (sugars k3 d10 k3, PS) = -1

Input line: Please check the record CAGTCAGCAGGAGTAG (sugars k4 d9 k3, PS) and state if its target mRNA inhibition is at or above 90%.
Output line: -1

Input line: Please check the record CGCAATGCTGACTTGG (sugars kkddddekekeddddd, PS) and state if its target mRNA inhibition is at or above 90%.
Output line: 1

----------
# target mRNA inhibition values compiled below
target: KRAS; conditions: ASO, A431, 2 µM
After the bases stand the sugars from the 5' end (letter, count) and the backbone: PS all phosphorothioate, else s phosphorothioate and o phosphodiester by linkage. Methylation of C is not given here. e = 2'-O-(2-methoxyethyl) (MOE); k = constrained ethyl (cEt); d = 2'-deoxy (DNA)
Respond with the bare value in %.

• ACTTGTACTAGTATGC (sugars k3 d10 k3, PS) = 51

Input line: // query target mRNA inhibition value for entry AATGGTGAATATCTTC (sugars k3 d10 k3, PS)
Output line: 50

Input line: // query target mRNA inhibition value for entry ACCAGTGTTAAGAGAA (sugars kdddddddddkekeke, PS)
Output line: 50

----------
molecular target: DGAT2; conditions: ASO, HepG2, 0.12 µM
After the bases stand the sugars from the 5' end (letter, count) and the backbone: PS all phosphorothioate, else s phosphorothioate and o phosphodiester by linkage. Methylation of C is not given here. e = 2'-O-(2-methoxyethyl) (MOE); d = 2'-deoxy (DNA)
reported property: target mRNA inhibition (%)
Respond with the bare value in %.

Solved entries:
- GCCGTATGCCTGGGAACTTC (sugars e5 d10 e5, PS): 29
- GCGCAGGACCCCGGAGTAGG (sugars e2 d13 e5, PS): 72
- GAGGCTCAGGCCTTGACAAC (sugars e5 d10 e5, PS): 12
- TTTGGAACTAATCTGCTGCT (sugars e5 d10 e5, PS): 50
- TCTCATCAAGAGATAACAGA (sugars e5 d10 e5, PS): 6
- TATTTCTGGAACTTCTTCTG (sugars e5 d10 e5, PS): 22

Input line: // query target mRNA inhibition value for entry GCATTTTAACAAGATCCCCA (sugars e5 d10 e5, PS)
Output line: 34

Input line: // query target mRNA inhibition value for entry CGGAGAGGATGCTGGATCCA (sugars e5 d10 e5, PS)
Output line: 47

Input line: // query target mRNA inhibition value for entry TCCCAGACCCCTCGCGCGAC (sugars e5 d10 e5, PS)
Output line: 36

Input line: // query target mRNA inhibition value for entry TCTGGACCCATCGGCCCCAG (sugars e5 d10 e5, PS)
Output line: 20

Input line: // query target mRNA inhibition value for entry GCATTGCCACTCCCATTCTT (sugars e2 d13 e5, PS)
Output line: 61

Input line: // query target mRNA inhibition value for entry CTGGACAAGTCCTGCCCATC (sugars e3 d14 e3, PS)
Output line: 67

Input line: // query target mRNA inhibition value for entry CTTCACCAGGGCCTCCATGT (sugars e5 d10 e5, PS)
Output line: 46
